Reported pKd is given for each of the following binders.
Target: T1, recombinant human ENTPD2 extracellular domain (residues 29-462) with C-terminal Avi-His6 tag (human, UniProt Q9Y5L3 29-462, biotinylated on the AviTag in the epitope binning assay)
T1 construct: also called human ENTPD2 ECD; Human ENTPD2-Avi-His6 protein
T1 sequence (Q9Y5L3 29-462): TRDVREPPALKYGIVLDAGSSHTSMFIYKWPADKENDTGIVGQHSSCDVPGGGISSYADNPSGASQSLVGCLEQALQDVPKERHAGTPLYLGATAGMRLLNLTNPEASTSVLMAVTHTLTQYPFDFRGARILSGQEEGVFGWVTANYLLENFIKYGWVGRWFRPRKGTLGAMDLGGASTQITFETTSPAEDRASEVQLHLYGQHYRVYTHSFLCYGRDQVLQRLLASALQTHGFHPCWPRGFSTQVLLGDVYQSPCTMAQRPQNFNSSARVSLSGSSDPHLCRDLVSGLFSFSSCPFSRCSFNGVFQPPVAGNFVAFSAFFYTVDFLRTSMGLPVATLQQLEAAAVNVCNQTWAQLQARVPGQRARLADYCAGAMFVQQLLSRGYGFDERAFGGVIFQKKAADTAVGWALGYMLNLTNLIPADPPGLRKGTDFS
Assay: SPR Biacore, mAb captured, ECD analyte, 25C
// pKd is dimensionless: -log10 of concentration (M)

{"binder": "ANTI-HUMAN ENTPD2 MAB6 (antibody, human IgG1, kappa, V domains shown, humanized and optimized from mAb16; human IgG1, kappa; also called Anti-ENTPD2 mAb6) VH: QVQLQESGPGLVKPSQTLSLTCTVSGYSITSGYYWNWIRQHPGKGLEWMGYISYDADNNYNPSLKNRITISRDTSKNQFSLKLSSVTAADTAVYYCAGGYYRYGLGSYSGSYYYVMDYWGQGTTVTVSS VL: DTQMTQSPSSLSVSVGDRATITCKASQSVDYEGHSYMNWYQQKPGKAPKLLIYAASNLESGVPSRFSGSGSGTDFTLTISSVQPEDFATYYCQQSNEDPPTFGGGTKLEIKR", "recorded value": 9.15}
{"binder": "ANTI-HUMAN ENTPD2 MAB5 (antibody, human IgG1, kappa, V domains shown, humanized and optimized from mAb16; human IgG1, kappa; also called Anti-ENTPD2 mAb5) VH: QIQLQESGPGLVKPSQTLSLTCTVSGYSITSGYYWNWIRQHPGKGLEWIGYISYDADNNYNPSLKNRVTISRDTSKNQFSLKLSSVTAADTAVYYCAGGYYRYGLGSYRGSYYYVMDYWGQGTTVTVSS VL: ETVLTQSPATLSVSPGERATISCKASQSVDYDGNSYMNWYQQKPGQAPRLLIYAASNLESGIPARFSGSGSGTDFTLTISSVEPEDAATYYCQQSNEDPPTFGGGTKLEIKR", "recorded value": 9.22}
{"binder": "ANTI-HUMAN ENTPD2 MAB9 (antibody, human IgG1, lambda, V domains shown, also called Anti-ENTPD2 mAb9) VH: QVQLVQSGAEVKKPGSSVKVSCKASGGTFDSYAVSWVRQAPGQGLEWMGRIVPWLGHTQYAQKFQGRVTITADESTSTAYMELSSLRSEDTAVYYCARESPGYRYSFDVWDQGTLVTVSS VL: SYELTQPLSVSVALGQTARITCSGDAIGEKYVYWYQQKPGQAPVLVIYDDNNRPSGIPERFSGSNSGNTATLTISRAQAGDEADYYCASYDLQQARWVFGGGTKLTVLG", "recorded value": 9.05}

Now for the binder whose pKd we want.
Prompt line: State its pKd: ANTI-HUMAN ENTPD2 MAB8 (antibody, human IgG1, lambda, V domains shown, also called Anti-ENTPD2 mAb8) VH: QVQLQQSGPGLVKPSQTLSLTCAISGDSVSSSSAAWNWIRQSPSRGLEWLGRIYYRSKWYNDYAVSVKSRITINPDTSKNQFSLQLNSVTPEDTAVYYCARGSYVTSSYEGFDYWGQGTLVTVSS VL: SYELTQPLSVSVALGQTARITCSGDNLPEKYAYWYQQKPGQAPVLVIYDDNKRPSGIPERFSGSNSGNTATLTISRAQAGDEADYYCQSYGKWGWTWVFGGGTKLTVLG
Response line: 8.48

Data provenance: patent US20220348651A1
